# METHOD: IAM chromatography on new IAM.PC.DD2 columns (gradient HPLC, CHI (IAM))
# Assay type: physicochemical
# SETUP CONDITIONS: new IAM.PC.DD2 column batch R20511-014-3, pH 7.4
Kindly apply the following: TRUE if R20511-014-3 CHI (IAM) is less than 30, FALSE in every other case.

Check out these entries, answers already filled in.
- CC(C)(C)NC(=O)[C@H]1CC[C@H]2[C@@H]3CC[C@H]4NC(=O)C=C[C@]4(C)[C@H]3CC[C@]12C [Finasteride]: FALSE
- CC(=O)CC(c1ccccc1)c1c(O)c2ccccc2oc1=O (stereo not shown): TRUE
- Cc1cc(C)nc(NS(=O)(=O)c2ccc(N)cc2)n1: TRUE
- COc1cnc(NS(=O)(=O)c2ccc(N)cc2)nc1: TRUE
- CC(O)Cn1cnc2c1c(=O)n(C)c(=O)n2C (stereo not shown): TRUE
- COC(=O)C1=C(C)NC(C)=C(C(=O)OCCN(C)Cc2ccccc2)C1c1cccc([N+](=O)[O-])c1 (stereo not shown): FALSE

Turning now to a further compound:
Would you kindly verify if R20511-014-3 CHI (IAM) of Cn1c(=O)c2c(ncn2CC(O)CO)n(C)c1=O (stereo not shown) is strictly less than 30?
TRUE

---

# METHOD: IAM chromatography on new IAM.PC.DD2 columns (gradient HPLC, CHI (IAM))
# Type: physicochemical
# Set-up: key: CHI (IAM) from retention times calibrated to predefined CHI standards
# SETUP CONDITIONS: system suitability test compounds, new IAM.PC.DD2 columns, pH 7.4
Provide the reported CHI (IAM) “new” of each item.
Answers are plain numbers.

Past entries and their recorded results:
- COC(=O)C1=C(C)NC(C)=C(C(=O)OCCN(C)Cc2ccccc2)C1c1cccc([N+](=O)[O-])c1 (stereo not drawn): 45.0
- COc1cc2c(c(OC)c1OC)-c1ccc(OC)c(=O)cc1[C@@H](NC(C)=O)CC2: 23.0
- CCCC1O[C@@H]2C[C@H]3[C@@H]4CCC5=CC(=O)C=C[C@]5(C)[C@H]4[C@@H](O)C[C@]3(C)[C@]2(C(=O)CO)O1 (stereo partly drawn) [Budesonide]: 38
- CN(C)CCCN1c2ccccc2Sc2ccc(Cl)cc21: 54.0
- CC(=O)CC(c1ccccc1)c1c(O)c2ccccc2oc1=O (stereo not drawn): 24.0

// next item, CHI (IAM) “new” requested
Could you tell me which CHI (IAM) “new” is on file for "O=C(CCCN1CCC(O)(c2ccc(Cl)cc2)CC1)c1ccc(F)cc1" ?
48

---

# METHOD: IAM chromatography on new IAM.PC.DD2 columns (gradient HPLC, CHI (IAM))
# Format: physicochemical
# SETUP CONDITIONS: new IAM.PC.DD2 column batch R20511-014-3, pH 7.4
# Protocol: The IAM binding was measured using IAM.PC.DD2 HPLC columns (Regis Technologies, Inc., IL, USA) with dimensions of 100 x 4.6 mm, particle size 10 μm with 300 Å pore size. Two batches of IAM.PC.DD2 columns were studied (R20511-014-3 and P20511-014-3) that had been prepared using the new batches of silica support. […]
READOUT: R20511-014-3 CHI (IAM)

Past entries and their recorded results:
- Cc1noc(NS(=O)(=O)c2ccc(N)cc2)c1C [Sulfisoxazole]: 6.48
- CCN(CC)CCNC(=O)c1ccc(N)cc1 [Procainamide]: 11.73
- CC(=O)N1CCN(c2ccc(OCC3COC(Cn4ccnc4)(c4ccc(Cl)cc4Cl)O3)cc2)CC1 (stereo not drawn) [Ketoconazole]: 39.50
- C[C@]12C=CC(=O)C=C1CC[C@@H]1[C@@H]2[C@@H](O)C[C@@]2(C)[C@H]1CC[C@]2(O)C(=O)CO [Prednisolone]: 27.31
- CN(C)CCCN1c2ccccc2CCc2ccccc21 [Imipramine]: 45.58

# batch: return R20511-014-3 CHI (IAM) for each of the 4 molecules below
1. CC(C(=O)O)c1ccc(-c2ccccc2)c(F)c1 (stereo not drawn) [Flurbiprofen]
2. Cc1onc(-c2c(F)cccc2Cl)c1C(=O)N[C@@H]1C(=O)N2[C@@H]1SC(C)(C)[C@@H]2C(=O)O [Floxacillin]
3. CC(C)NCC(O)COc1cccc2ccccc12 (stereo not drawn) [Propranolol]
4. Nc1cc(N2CCCCC2)nc(N)[n+]1[O-] [Minoxidil]

30.23
23.76
42.24
15.93

# batch: return R20511-014-3 CHI (IAM) for each of the 6 molecules below
1. C[C@H]1C[C@@H]2[C@H]([C@@H](O)C[C@@]3(C)[C@H]2CC[C@]3(O)C(=O)CO)[C@@]2(C)C=CC(=O)C=C12 [Methylprednisolone]
2. C[C@]12C=CC(=O)C=C1CC[C@@H]1[C@@H]2C(=O)C[C@@]2(C)[C@H]1CC[C@]2(O)C(=O)CO [Prednisone]
3. C[C@]12CCC(=O)C=C1CC[C@@H]1[C@@H]2[C@@H](O)C[C@@]2(C)[C@H]1CC[C@]2(O)C(=O)CO [Hydrocortisone]
4. COc1ccc2cc(CCC(C)=O)ccc2c1 [Nabumetone]
5. Cc1ncc([N+](=O)[O-])n1CCO [Metronidazole]
6. COc1cc(Cc2cnc(N)nc2N)cc(OC)c1OC [Trimethoprim]

1: 30.91; 2: 25.25; 3: 27.23; 4: 35.90; 5: -2.71; 6: 20.99
